# melting point annotations

[
  {
    "compound": "COc1ccc(C(=O)Nc2cccc(O)c2NC(=O)c2ccc(OC)cc2)cc1 [Example 158, 2,3-bis[(4-Methoxybenzoyl)amino]phenol]",
    "melting point": "208 to 209 °C"
  }
]

Problem: Entry COc1ccc(NC(=O)c2ccccc2NC(=O)c2ccc(C(C)(C)C)cc2)cc1 has what melting point?
Solution: 208 to 210 °C

Problem: Look up melting point: COc1ccc(C(=O)Nc2ccc(OC)cc2NC(=O)c2ccc(OC)cc2)cc1
Solution: 238 to 239 °C

Problem: Recorded melting point for CCNc1ccc(C(=O)Nc2ccc(OC)cc2)c(NC(=O)c2ccc(C(C)(C)C)cc2)c1 [Example 60a] , please?
Solution: 205 to 207.5 °C
